Measured Target: UniProt:Q9QUK6
Sequence (Q9QUK6 whole entry): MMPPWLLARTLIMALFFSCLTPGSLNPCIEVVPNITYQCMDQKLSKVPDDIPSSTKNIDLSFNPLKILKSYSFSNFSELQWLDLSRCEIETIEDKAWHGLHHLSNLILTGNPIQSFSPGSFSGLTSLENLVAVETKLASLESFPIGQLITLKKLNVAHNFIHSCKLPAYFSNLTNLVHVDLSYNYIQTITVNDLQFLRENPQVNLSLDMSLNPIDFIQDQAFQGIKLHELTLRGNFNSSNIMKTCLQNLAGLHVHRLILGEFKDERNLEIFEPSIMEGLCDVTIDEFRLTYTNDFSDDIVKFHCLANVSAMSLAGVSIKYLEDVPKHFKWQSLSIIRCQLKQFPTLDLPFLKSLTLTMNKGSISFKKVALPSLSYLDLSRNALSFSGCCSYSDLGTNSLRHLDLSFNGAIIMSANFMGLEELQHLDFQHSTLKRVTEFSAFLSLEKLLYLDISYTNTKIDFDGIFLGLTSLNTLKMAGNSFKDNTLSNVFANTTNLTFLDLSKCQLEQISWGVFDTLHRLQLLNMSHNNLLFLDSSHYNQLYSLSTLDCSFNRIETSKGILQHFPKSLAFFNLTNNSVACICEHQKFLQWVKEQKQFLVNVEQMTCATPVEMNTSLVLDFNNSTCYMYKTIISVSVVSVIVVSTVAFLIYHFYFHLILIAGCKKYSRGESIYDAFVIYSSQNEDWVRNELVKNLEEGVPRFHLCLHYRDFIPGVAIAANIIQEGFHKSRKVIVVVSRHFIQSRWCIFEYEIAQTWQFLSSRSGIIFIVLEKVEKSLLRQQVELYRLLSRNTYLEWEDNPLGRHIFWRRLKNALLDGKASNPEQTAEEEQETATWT
Protocol Text: Activation of TLR4 in C57BL/6 mouse BMDC cells assessed as AUC of IL6 release after 18 hrs by ELISA relative to N-cyclohexyl-2-(4-oxo-3-phenyl-4,5-dihydro-3H-pyrimido[5,4-b]indol-2-ylthio)acetamide
Assay type: cell-based
Measured Property: Activity (%)

Reference set (2 entries):
{"columns": ["Compound", "Activity / %"],
 "data": [
  ["O=C(CSc1nc2c([nH]c3ccccc32)c(=O)n1-c1ccccc1)Nc1cccc(F)c1", 14],
  ["CC(C)CNC(=O)CSc1nc2c([nH]c3ccccc32)c(=O)n1-c1ccccc1", 44]
]}

(I) O=C(CSc1nc2c([nH]c3ccccc32)c(=O)n1-c1ccccc1)NC1CCCCC1
(II) CCC(C)CCNC(=O)CSc1nc2c([nH]c3ccccc32)c(=O)n1-c1ccccc1 (centres undefined)
Given the two records I and II , choose the one whose Activity value is lower. Answer by quoting the chosen item's label.
II
(II: 30%, I: 100%)

(I) O=C(CSc1nc2c([nH]c3ccccc32)c(=O)n1C1CCCCC1)NC1CCCCC1
(II) O=C(CSc1nc2c([nH]c3ccccc32)c(=O)n1-c1ccccc1)Nc1nccs1
I'd appreciate it if you could identify which of I and II has the greater Activity. Give the label of your selection.
I
